These data points were gathered from patent US20140213538A1.

# target of assay: LPA/S1P GPCR of interest (Homo sapiens)
# assay protocol: Beta-Arrestin based assay (PathHunter)
Overview of recorded EC50 for various compounds

Below, 3 compounds whose answers are already recorded.
[
  {
    "mol": "Cc1nsc(-c2cc3sc(-c4ccc(CC(=O)O)c(F)c4F)cc3s2)c1NC(=O)O[C@H](C)c1ccccc1",
    "EC50": "50 to 500 nM"
  },
  {
    "mol": "C[C@@H](OC(=O)Nc1c(-c2cc3sc(-c4cnc(C5(C(=O)O)CC5)c(F)c4)cc3s2)nnn1C)c1ccccc1",
    "EC50": "< 50 nM"
  },
  {
    "mol": "C[C@@H](OC(=O)Nc1c(-c2cc3sc(-c4cc(F)c(Oc5ncccc5C(=O)O)c(F)c4)cc3s2)cnn1C)c1ccccc1",
    "EC50": "< 50 nM"
  }
]

Return reported EC50; argument: C[C@@H](OC(=O)Nc1c(-c2ccc(C#CC(=O)N[C@@H](C(=O)O)c3ccccc3)cc2)cnn1C)c1ccccc1 > 500 nM

What EC50 value was documented for this compound, C[C@@H](OC(=O)Nc1c(-c2cc3sc(-c4ccc(C5(C(=O)O)CC5)c(C(F)(F)F)c4)cc3s2)cnn1C)c1ccccc1 ? 50 to 500 nM

Value lookup for EC50; key = C[C@@H](OC(=O)Nc1c(-c2ccc(-c3ccc(OC(C)(C)C(=O)O)c(F)c3)cc2)oc2ccccc12)c1ccccc1 50 to 500 nM

So what does the record say about EC50 for C[C@@H](OC(=O)Nc1c(-c2cc3sc(-c4ccc(C5(C(=O)O)CC5)nc4)cc3s2)cnn1C)c1ccccc1 ? 50 to 500 nM

----------
# target of assay: LPA/S1P GPCR of interest (Homo sapiens)
# assay protocol: Beta-Arrestin based assay (PathHunter)
assay endpoint: EC50

Kindly state the measured EC50 obtained for Cc1nsc(-c2ccc(-c3ccc(C(=O)O)s3)cc2)c1NC(=O)O[C@H](C)c1ccccc1 [IT144] with LPA/S1P GPCR of interest (Homo sapiens). > 500 nM

Lookup: EC50 / LPA/S1P GPCR of interest (Homo sapiens) / Cc1nnn(-c2ccc(-c3cc(F)c(OC4(C(=O)O)CC4)c(F)c3)cc2)c1NC(=O)O[C@H](C)c1ccccc1 [IT313] 50 to 500 nM

----------
Each entry below carries its recorded pEC50.
# target of assay: LPA1 (Homo sapiens, UniProt Q92633)
# Sequence (Q92633 whole entry): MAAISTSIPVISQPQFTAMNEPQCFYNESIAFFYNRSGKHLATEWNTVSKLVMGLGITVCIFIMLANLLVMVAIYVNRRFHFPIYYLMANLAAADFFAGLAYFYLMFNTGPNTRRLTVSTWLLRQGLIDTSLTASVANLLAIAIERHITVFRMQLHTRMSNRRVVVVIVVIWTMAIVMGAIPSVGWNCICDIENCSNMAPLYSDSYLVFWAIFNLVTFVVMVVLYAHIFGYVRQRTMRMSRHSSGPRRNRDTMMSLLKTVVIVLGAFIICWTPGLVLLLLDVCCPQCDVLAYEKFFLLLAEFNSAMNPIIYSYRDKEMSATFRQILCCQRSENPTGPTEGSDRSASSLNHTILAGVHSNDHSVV
# assay protocol: LPA1 Migration Assay (Oris)
# setup conditions: read-out: Cell Migration EC50
pEC50: −log10 of the molar value.

Would you please look over these solved cases?
[
  {
    "molecule": "Cc1noc(-c2ccc(-c3ccc(Oc4c(C)nn(C)c4C(=O)O)cc3)cc2)c1NC(=O)O[C@H](C)c1ccccc1",
    "pEC50": "6.30 to 7.30"
  },
  {
    "molecule": "C[C@@H](OC(=O)Nc1c(-c2ccc(-c3ccc(Oc4ccccc4C(=O)O)cc3)cc2)oc2ccccc12)c1ccccc1 (single isomer, unassigned)",
    "pEC50": "6.30 to 7.30"
  },
  {
    "molecule": "C[C@@H](OC(=O)Nc1c(-c2ccc(-c3cc(F)c(Oc4ncccc4C(=O)O)c(F)c3)cc2)cnn1C)c1ccccc1Cl",
    "pEC50": "> 7.30"
  },
  {
    "molecule": "COc1cc(CC(=O)O)ccc1-c1cc2sc(-c3cnn(C)c3NC(=O)O[C@H](C)c3ccccc3)cc2s1",
    "pEC50": "< 6.30"
  },
  {
    "molecule": "C[C@@H](OC(=O)Nc1c(C#Cc2sc3cc(C4(C(=O)O)CC4)sc3c2C(F)(F)F)cnn1C)c1ccccc1",
    "pEC50": "6.30 to 7.30"
  }
]

Data request, read-out pEC50, for Cc1noc(-c2ccc(-c3ccc(Oc4scnc4C(=O)O)cc3)cc2)c1NC(=O)O[C@H](C)c1ccccc1 6.30 to 7.30

Quick one: pEC50 of C[C@@H](OC(=O)Nc1c(C#Cc2ccc3cc(C4(C(=O)O)CC4)ccc3c2)nnn1C)c1ccccc1 ? 6.30 to 7.30
